- Read-out: Tissue Factor, F3 (gene 2152)
- protocolNotes: BSK_LPS_TissueFactor: BioMAP Diversity Plus: LPS Assay for Tissue Factor Biomarker Activity (AID 2283084)
- experimentalContext: primary human HUVEC with PBMC; actives raise or lower the signal
Activity calls are given as the source filed them. How the source made its calls: active means hit-call score of the fitted dose curve at least 0.9, where 1 is the maximum; inactive means score below 0.9.
Write down one outcome, taken from true = active, false = inactive

Task item: What call does the record list for Cn1c(=O)cc(Oc2ccc(F)cc2F)c2cnc(NCC(C)(C)O)nc21 ?
Reply: true

Task item: Also CCOC(=O)COc1ccc2c(c1)CC(NCC(O)c1cccc(Cl)c1)CC2 (configuration not stated) , if possible.
Reply: false

Task item: Also Clc1nc(Cl)c(Cl)c(Cl)c1Cl , if possible.
Reply: true

Task item: Also Cc1ccc(C)c(O)c1 , if possible.
Reply: false

Task item: Also Cc1ccc(S(=O)(=O)O)cc1C , if possible.
Reply: false

Task item: Also CCCCC(CC)COC(=O)c1ccc(C(=O)OCC(CC)CCCC)cc1 (configuration not stated) , if possible.
Reply: false

Task item: Also CCC(C)(C)C(=O)O[C@H]1C[C@@H](C)C=C2C=C[C@H](C)[C@H](CC[C@@H]3C[C@@H](O)CC(=O)O3)[C@H]21 , if possible.
Reply: false

Task item: Also CC(C)=CCC/C(C)=C/CO , if possible.
Reply: false

Task item: Also O=C(O)c1cc(N=Nc2ccc(S(=O)(=O)Nc3ccccn3)cc2)ccc1O , if possible.
Reply: false

Task item: Also C[C@](N)(Cc1ccc(O)c(O)c1)C(=O)O , if possible.
Reply: false

Task item: Also C=CCCCCCCCCC(=O)O , if possible.
Reply: false

Task item: Also C1N2CN3CN1CN(C2)C3 , if possible.
Reply: false

Task item: Also Fc1ccccc1[C@@H](F)COC1CCC(Nc2ncnc3[nH]ncc23)CC1 (some centres not stated) , if possible.
Reply: false

Task item: Also CCc1cc(SCc2sc(-c3ccc(C(F)(F)F)cc3)nc2CN2CCN(c3ccc(OC)cc3)CC2)ccc1OCC(=O)O , if possible.
Reply: true

Task item: Also CCOC(=O)c1ccc(C2CCC(NC[C@H](O)COc3ccc(O)c(NS(C)(=O)=O)c3)CC2)cc1 (some centres not stated) , if possible.
Reply: false

Task item: Also COC(=O)CC(=O)OC , if possible.
Reply: false

Task item: Also CCNc1ccccc1 , if possible.
Reply: false

Task item: Also COC(=O)c1ccccc1O , if possible.
Reply: false

Task item: Also On1ccccc1=S , if possible.
Reply: false

Task item: Also CCn1nc(Cc2ccccc2)cc1C1CCN(C[C@H]2C[C@H](N(C)[C@@H](C(=O)O)C(C)C)C[C@@H]2c2cccc(F)c2)CC1 , if possible.
Reply: false

Task item: Also O=C1OC(=O)C2C3C=CC(C3)C12 (configuration not stated) , if possible.
Reply: false

Task item: Also NC(=O)NO , if possible.
Reply: false
